# assay_overview: Biodistribution experiments in normal mice after i.v. injection
# Type: in vivo
# cond: male, ddY, mouse, in vivo, iv, total radioactivity, Biodistribution of radioactivity, Liver
Where a SMILES comes first, the peptide text is derived from it. [ ]: non-standard residue; d: D form. The star is where a group is joined. DOTA = O=C(O)CN1CCN(CC(=O)O)CCN(CC(=O)*)CCN(CC(=O)O)CC1
measured_attribute: tissue uptake dose at 1 h (%ID)
Numbers only here, please. The scale is %ID.

Some compounds with recorded tissue uptake dose at 1 h:
[
  {
    "compound": "O=C(O)C[C@@H](NC(=O)[C@@H](CC(=O)O)NC(=O)[C@@H](CC(=O)O)NC(=O)[C@@H](CC(=O)O)NC(=O)[C@@H](CC(=O)O)NC(=O)[C@@H](CC(=O)O)NC(=O)[C@@H](CC(=O)O)NC(=O)[C@@H](CC(=O)O)NC(=O)CN1CCN(CC(=O)O)CCN(CC(=O)O)CCN(CC(=O)O)CC1)C(=O)O [^67Ga-DOTA-(D-Asp)8, metal not drawn] ({DOTA}-[dD][dD][dD][dD][dD][dD][dD][dD]-OH)",
    "tissue uptake dose at 1 h / %ID": 0.14
  },
  {
    "compound": "O=C(O)CC[C@@H](NC(=O)[C@@H](CCC(=O)O)NC(=O)[C@@H](CCC(=O)O)NC(=O)[C@@H](CCC(=O)O)NC(=O)[C@@H](CCC(=O)O)NC(=O)[C@@H](CCC(=O)O)NC(=O)[C@@H](CCC(=O)O)NC(=O)[C@@H](CCC(=O)O)NC(=O)[C@@H](CCC(=O)O)NC(=O)[C@@H](CCC(=O)O)NC(=O)[C@@H](CCC(=O)O)NC(=O)[C@@H](CCC(=O)O)NC(=O)[C@@H](CCC(=O)O)NC(=O)[C@@H](CCC(=O)O)NC(=O)CN1CCN(CC(=O)O)CCN(CC(=O)O)CCN(CC(=O)O)CC1)C(=O)O [^67Ga-DOTA-(D-Glu)14, metal not drawn]",
    "tissue uptake dose at 1 h / %ID": 0.12
  },
  {
    "compound": "O=C(O)C[C@@H](NC(=O)[C@@H](CC(=O)O)NC(=O)CN1CCN(CC(=O)O)CCN(CC(=O)O)CCN(CC(=O)O)CC1)C(=O)O [^67Ga-DOTA-(D-Asp)2, metal not drawn] ({DOTA}-[dD]-[dD]-OH)",
    "tissue uptake dose at 1 h / %ID": 0.31
  }
]

query: So what's the measured tissue uptake dose at 1 h for this one? O=C(O)CC[C@H](NC(=O)[C@H](CCC(=O)O)NC(=O)[C@H](CCC(=O)O)NC(=O)[C@H](CCC(=O)O)NC(=O)[C@H](CCC(=O)O)NC(=O)[C@H](CCC(=O)O)NC(=O)[C@H](CCC(=O)O)NC(=O)[C@H](CCC(=O)O)NC(=O)[C@H](CCC(=O)O)NC(=O)[C@H](CCC(=O)O)NC(=O)[C@H](CCC(=O)O)NC(=O)[C@H](CCC(=O)O)NC(=O)[C@H](CCC(=O)O)NC(=O)[C@H](CCC(=O)O)NC(=O)CN1CCN(CC(=O)O)CCN(CC(=O)O)CCN(CC(=O)O)CC1)C(=O)O [^67Ga-DOTA-(L-Glu)14, metal not drawn]
result: 0.13

query: So what's the measured tissue uptake dose at 1 h for this one? O=C(O)C[C@@H](NC(=O)[C@@H](CC(=O)O)NC(=O)[C@@H](CC(=O)O)NC(=O)[C@@H](CC(=O)O)NC(=O)[C@@H](CC(=O)O)NC(=O)CN1CCN(CC(=O)O)CCN(CC(=O)O)CCN(CC(=O)O)CC1)C(=O)O [^67Ga-DOTA-(D-Asp)5, metal not drawn] ({DOTA}-[dD][dD][dD][dD][dD]-OH)
result: 0.22
